Target: rat NaPi-2b (Rattus norvegicus)
Sequence (Q9JJ09 1-695): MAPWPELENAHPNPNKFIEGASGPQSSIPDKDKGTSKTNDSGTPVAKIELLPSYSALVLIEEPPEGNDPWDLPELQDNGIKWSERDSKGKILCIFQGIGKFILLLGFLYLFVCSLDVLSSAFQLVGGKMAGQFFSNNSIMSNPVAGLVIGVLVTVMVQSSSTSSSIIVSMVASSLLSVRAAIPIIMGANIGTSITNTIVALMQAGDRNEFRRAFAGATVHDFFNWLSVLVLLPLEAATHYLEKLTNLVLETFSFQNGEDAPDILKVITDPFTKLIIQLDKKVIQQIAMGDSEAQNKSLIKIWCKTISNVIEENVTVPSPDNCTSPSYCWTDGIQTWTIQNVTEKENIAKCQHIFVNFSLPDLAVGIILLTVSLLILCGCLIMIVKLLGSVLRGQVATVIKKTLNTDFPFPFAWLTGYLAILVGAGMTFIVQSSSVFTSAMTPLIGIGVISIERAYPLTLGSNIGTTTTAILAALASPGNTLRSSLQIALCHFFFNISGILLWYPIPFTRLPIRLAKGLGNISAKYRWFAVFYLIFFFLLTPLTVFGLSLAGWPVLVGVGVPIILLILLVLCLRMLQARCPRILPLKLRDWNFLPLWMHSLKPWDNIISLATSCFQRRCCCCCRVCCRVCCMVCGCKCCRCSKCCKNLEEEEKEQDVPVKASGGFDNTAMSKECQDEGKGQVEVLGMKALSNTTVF
Assay: Sodium-dependent phosphate uptake of Xenopus oocytes which expressed NaPi-2b (32P)
Conditions: Xenopus oocytes expressing rat NaPi-2b, 32P radioactive phosphorus; read-out: IC50 (phosphate uptake inhibitory activity)
Catalogue of IC50 readings, one per entry.

- compound: "Cc1ccc(/C=N/NC(=O)c2ccsc2NC(=O)c2cccc(CN(CC(C)O)CC(C)O)c2)cc1 (stereo not shown)"
  IC50: "< 3000 nM"
- compound: "O=C(Nc1ccc(N2CCCCC2)cc1C(=O)N/N=C/c1ccc(Cl)c(C(F)(F)F)c1)c1cccc(CN2CCN(CCO)CC2)c1"
  IC50: "< 300 nM"
- compound: "Cc1ccc(/C=N/NC(=O)c2cc3ccccc3cc2NC(=O)c2cccc(CN(CC(C)O)CC(C)O)c2)cc1C (stereo not shown)"
  IC50: "< 1000 nM"
- compound: "Cc1ccc(/C=N/NC(=O)c2cc(N3CCCCC3)ccc2NC(=O)c2cccc(CN3CCc4nc5ncccc5cc4C3)c2)cc1C"
  IC50: "< 300 nM"
